- Target Or Test System: Angiotensin II receptor (AT-1) type-1 (Rattus norvegicus, UniProt P29089+P25095)
- Test Details: Antagonist activity against Angiotensin II receptor type 1 as pA2
- Type: functional
Where a SMILES comes first, the peptide text is derived from it. [ ]: non-standard residue; d: D form. Nva(5-OH) = N[C@@H](CCCO)C(=O)O; Aib = CC(C)(N)C(=O)O; Sar = CNCC(=O)O
Measured Property: pA2

Observe how each entry below is paired with its result.
# Compound, pA2
measured = [
    ("CC[C@H](C)[C@H](NC(=O)C(Cc1ccc(C(=O)O)cc1)NC(=O)[C@@H](NC(=O)[C@H](CCCN=C(N)N)NC(=O)CNC)C(C)C)C(=O)N[C@@H](Cc1c[nH]cn1)C(=O)N1CCC[C@H]1C(=O)N[C@@H](Cc1ccccc1)C(=O)O (mixture of isomers)", "< 5"),
    ("CC[C@H](C)[C@H](NC(=O)[C@@H]1CCCN1C(=O)[C@H](Cc1c[nH]cn1)NC(=O)[C@@H](NC(=O)[C@H](CCCO)NC(=O)[C@@H](NC(=O)[C@H](CCCN=C(N)N)NC(=O)C(C)(C)N)C(C)C)[C@@H](C)CC)C(=O)O (H-[Aib]RV[Nva(5-OH)]IHPI-OH)", 6.2),
    ("CC[C@H](C)[C@H](NC(=O)[C@H](CCCO)NC(=O)[C@@H](NC(=O)[C@H](CCCN=C(N)N)NC(=O)CNC)C(C)C)C(=O)N[C@@H](Cc1c[nH]cn1)C(=O)N1CCC[C@H]1C(=O)N[C@@H](Cc1ccccc1)C(=O)O (H-[Sar]RV[Nva(5-OH)]IHPF-OH)", "< 6"),
    ("CC[C@H](C)[C@H](NC(=O)C(Cc1ccc(C(F)(F)F)cc1)NC(=O)[C@@H](NC(=O)[C@H](CCCN=C(N)N)NC(=O)CNC)C(C)C)C(=O)N[C@@H](Cc1c[nH]cn1)C(=O)N1CCC[C@H]1C(=O)N[C@@H](Cc1ccccc1)C(=O)O (mixture of isomers)", "< 5"),
    ("CC[C@H](C)[C@H](NC(=O)[C@@H]1CCCN1C(=O)[C@H](Cc1c[nH]cn1)NC(=O)[C@@H](NC(=O)[C@H](CCCO)NC(=O)[C@@H](NC(=O)[C@H](CCCN=C(N)N)NC(=O)CNC)C(C)C)[C@@H](C)CC)C(=O)O (H-[Sar]RV[Nva(5-OH)]IHPI-OH)", "< 5"),
    ("CC[C@H](C)[C@H](NC(=O)[C@H](Cc1ccc(O)cc1)NC(=O)[C@@H](NC(=O)[C@@H](N)CCCN=C(N)N)C(C)C)C(=O)N[C@@H](Cc1c[nH]cn1)C(=O)N1CCC[C@H]1C(=O)N[C@@H](CCOC)C(=O)O", "< 6"),
    ("CC[C@H](C)[C@H](NC(=O)[C@H](CCCO)NC(=O)[C@@H](NC(=O)[C@H](CCCN=C(N)N)NC(=O)C(C)(C)N)C(C)C)C(=O)N[C@@H](Cc1c[nH]cn1)C(=O)N1CCC[C@H]1C(=O)N[C@@H](Cc1ccccc1)C(=O)O (H-[Aib]RV[Nva(5-OH)]IHPF-OH)", "< 6"),
    ("CC[C@H](C)[C@H](NC(=O)[C@H](Cc1ccc(O)cc1)NC(=O)[C@@H](NC(=O)[C@H](CCCN=C(N)N)NC(=O)[C@@H](N)CC(=O)O)C(C)C)C(=O)N[C@@H](Cc1c[nH]cn1)C(=O)N1CCC[C@H]1C(=O)N[C@@H](CCOC)C(=O)O", 7.5),
]

Lab note: next compound to report on.
Inquiry: Please state recorded pA2 (tested on Angiotensin II receptor (AT-1) type-1 (Rattus norvegicus, UniProt P29089+P25095)) of CC[C@H](C)[C@H](NC(=O)[C@H](Cc1ccc(O)cc1)NC(=O)[C@@H](NC(=O)[C@H](CCCN=C(N)N)NC(=O)CNC)C(C)C)C(=O)N[C@@H](Cc1c[nH]cn1)C(=O)N1CCC[C@H]1C(=O)N[C@@H](CCOC)C(=O)O (stereo in doubt; form 1)
Reply text: 7.6

Source: ChEMBL document CHEMBL1128192
